Hey, just so you know, these numbers are from ChEMBL document CHEMBL5512622.

# PROCEDURE SUMMARY: Cmax in ICR mouse at 5 mg/kg, po measured after 24 hrs by LC/MS/MS analysis
# Format: ADME, organism-based
# REPORTED CONDITIONS: in vivo
ENDPOINT LABEL: Cmax (ng/mL)
The response must be a number in ng/mL with no trailing unit.

Q. Entry `COc1ccc2c(Oc3ccc(CC(=O)NO)cc3)ccnc2n1` : reported Cmax = ?
A. 736

====

# MEASURED TARGET: Ectonucleotide pyrophosphatase/phosphodiesterase family member 1 (Homo sapiens)
# Sequence (P22413 whole entry): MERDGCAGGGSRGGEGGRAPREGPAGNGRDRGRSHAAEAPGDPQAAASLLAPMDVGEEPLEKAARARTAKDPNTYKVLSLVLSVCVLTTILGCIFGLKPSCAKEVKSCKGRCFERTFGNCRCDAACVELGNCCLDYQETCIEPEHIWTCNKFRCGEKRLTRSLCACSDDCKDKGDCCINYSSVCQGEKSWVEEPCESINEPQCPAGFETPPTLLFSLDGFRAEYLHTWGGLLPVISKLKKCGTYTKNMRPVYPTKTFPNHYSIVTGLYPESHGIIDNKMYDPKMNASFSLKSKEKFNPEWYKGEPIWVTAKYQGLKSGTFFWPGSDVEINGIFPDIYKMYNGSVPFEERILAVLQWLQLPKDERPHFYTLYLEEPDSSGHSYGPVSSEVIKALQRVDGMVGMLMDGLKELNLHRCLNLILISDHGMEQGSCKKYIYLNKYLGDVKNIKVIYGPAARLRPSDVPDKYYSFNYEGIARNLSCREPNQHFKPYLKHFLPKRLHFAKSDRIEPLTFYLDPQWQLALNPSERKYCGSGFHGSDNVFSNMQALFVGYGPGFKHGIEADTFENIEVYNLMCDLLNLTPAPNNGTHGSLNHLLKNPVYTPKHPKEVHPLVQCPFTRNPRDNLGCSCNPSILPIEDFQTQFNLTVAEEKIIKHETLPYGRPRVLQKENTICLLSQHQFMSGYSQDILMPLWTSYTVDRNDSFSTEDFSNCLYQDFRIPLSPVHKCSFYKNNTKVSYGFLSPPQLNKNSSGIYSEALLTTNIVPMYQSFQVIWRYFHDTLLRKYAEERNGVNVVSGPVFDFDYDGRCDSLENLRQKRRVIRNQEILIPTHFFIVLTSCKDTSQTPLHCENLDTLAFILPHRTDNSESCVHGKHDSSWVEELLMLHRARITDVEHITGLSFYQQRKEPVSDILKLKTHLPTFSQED
# PROCEDURE SUMMARY: Inhibition of recombinant human ENPP-1 using AMP-pNP as substrate incubated for 20 mins by absorbance based plate reader analysis
ENDPOINT LABEL: IC50

Q. Entry `COc1cc2ncc3ncn(Cc4ccc(CS(N)(=O)=O)cn4)c3c2cc1OC` : reported IC50 = ?
A. < 0.1 µM

====

# PROCEDURE SUMMARY: AUC in ICR mouse at 5 mg/kg, po measured after 24 hrs by LC/MS/MS analysis
# Type: ADME, organism-based
# REPORTED CONDITIONS: in vivo
ENDPOINT LABEL: AUC at 24 h (ng·h/mL)
The response must be a number in ng·h/mL with no trailing unit.

Q. Entry `COc1ccc2c(Oc3ccc(CC(=O)NO)cc3)ccnc2n1` : reported AUC at 24 h = ?
A. 619

====

Measured pKi, listed per entry for reference.
# MEASURED TARGET: Ectonucleotide pyrophosphatase/phosphodiesterase family member 1 (Homo sapiens, UniProt P22413)
# PROCEDURE SUMMARY: Inhibition of ENPP1 (unknown origin) using TMP-pNP as substrate preincubated for 10 mins followed by substrate addition and measured immediately under pH 8.8 by absorbance based multimode plate reader analysis
pKi: −log10 of the molar value.

smiles=NC(=O)c1c[nH]c2c(NCc3ccc(B(O)O)cc3)ncnc12 recorded_result="> 7.00"

Now turn to the next compound.
Q. Entry `NC(=O)c1c[nH]c2c(NCc3ccc(P(=O)(O)O)cc3)ncnc12` : reported pKi = ?
A. > 7.00
